- System: Escherichia coli TOP10;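 further: peptides expressed intracellularly from a pBAD plasmid library in pooled LB shake-flask culture, induced with 0.3% L-arabinose, DNA abundance read by NGS, three biological replicates, DESeq2 with apeglm shrinkage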
- experiment.description: shrunken log2 fold change of peptide-encoding DNA abundance (4.5 h post-induction vs induction); higher = less antimicrobial activity (less host growth inhibition)
- condition.notes: time post-induction: 4.5 h; library: site-saturation at positions 5, 18, 19, 20
observed.property: shrunken log2 fold change

INSERT INTO measurements (chain_sequence, observed_property, recorded_measurement) VALUES
  ('RRIRRRPPRLPRPRPRPTDWPRP', 'shrunken log2 fold change', 0.414),
  ('RRIRFRPPRLPRPRPRPTLHPRP', 'shrunken log2 fold change', -0.0536),
  ('RRIRLRPPRLPRPRPRPHAFPRP', 'shrunken log2 fold change', -0.208),
  ('RRIRRRPPRLPRPRPRPWYNPRP', 'shrunken log2 fold change', -0.468),
  ('RRIRCRPPRLPRPRPRPSWGPRP', 'shrunken log2 fold change', 0.258),
  ('RRIRERPPRLPRPRPRPVRTPRP', 'shrunken log2 fold change', 0.496),
  ('RRIRRRPPRLPRPRPRPKMLPRP', 'shrunken log2 fold change', 0.161),
  ('RRIRRRPPRLPRPRPRPDYTPRP', 'shrunken log2 fold change', -0.0883),
  ('RRIRMRPPRLPRPRPRPTWNPRP', 'shrunken log2 fold change', 0.188),
  ('RRIRRRPPRLPRPRPRPFLQPRP', 'shrunken log2 fold change', 0.117),
  ('RRIRCRPPRLPRPRPRPFKTPRP', 'shrunken log2 fold change', -0.478),
  ('RRIRSRPPRLPRPRPRPFEYPRP', 'shrunken log2 fold change', -0.115),
  ('RRIRPRPPRLPRPRPRPLTTPRP', 'shrunken log2 fold change', 0.135),
  ('RRIRMRPPRLPRPRPRPSIWPRP', 'shrunken log2 fold change', -0.255),
  ('RRIRHRPPRLPRPRPRPSNVPRP', 'shrunken log2 fold change', -0.00144),
  ('RRIRLRPPRLPRPRPRPMYIPRP', 'shrunken log2 fold change', -0.172),
  ('RRIRARPPRLPRPRPRPIFVPRP', 'shrunken log2 fold change', 0.233),
  ('RRIRRRPPRLPRPRPRPSTMPRP', 'shrunken log2 fold change', -0.467),
  ('RRIRRRPPRLPRPRPRPCFYPRP', 'shrunken log2 fold change', -0.187),
  ('RRIRDRPPRLPRPRPRPCSWPRP', 'shrunken log2 fold change', 0.654),
  ('RRIRERPPRLPRPRPRPFNRPRP', 'shrunken log2 fold change', -0.0972),
  ('RRIRPRPPRLPRPRPRPLTQPRP', 'shrunken log2 fold change', 0.0664),
  ('RRIRLRPPRLPRPRPRPDHGPRP', 'shrunken log2 fold change', -0.147),
  ('RRIRLRPPRLPRPRPRPAIGPRP', 'shrunken log2 fold change', -0.00988),
  ('RRIRRRPPRLPRPRPRPQTLPRP', 'shrunken log2 fold change', 0.101),
  ('RRIRMRPPRLPRPRPRPWWNPRP', 'shrunken log2 fold change', 0.045),
  ('RRIRDRPPRLPRPRPRPPYSPRP', 'shrunken log2 fold change', -0.805),
  ('RRIRYRPPRLPRPRPRPLRKPRP', 'shrunken log2 fold change', -0.258),
  ('RRIRARPPRLPRPRPRPDTFPRP', 'shrunken log2 fold change', 0.158),
  ('RRIRKRPPRLPRPRPRPNVTPRP', 'shrunken log2 fold change', 0.138),
  ('RRIRGRPPRLPRPRPRPMSCPRP', 'shrunken log2 fold change', 0.364),
  ('RRIRFRPPRLPRPRPRPNLEPRP', 'shrunken log2 fold change', -0.257);
